tested on: HCC-2998 colon; assay: NCI tumour cell line growth inhibition, 48 h
Answer each item with its documented GI50.

// known answers, use as guide
C/C(COc1ccc2oc(-c3ccccc3)cc(=O)c2c1)=N\O    19.5 µM
NC(CCl)=NCC12CC3CC(CC(C3)C1)C2    1.65 µM
N#Cc1ccc2[nH]cc(Cc3c[nH]c4ccc(C#N)cc34)c2c1    9.77 µM

Take each entry in turn and give its GI50.
1. COc1ccc2cc(C(=O)N3CCC([C@@H](C)C(=O)NCc4ccc5c(c4)OCO5)CC3)[nH]c2c1
2. COc1cc(/C=C2\C[C@H]3[C@@H]4CC=C5C[C@@H](O)CC[C@]5(C)[C@H]4CC[C@]3(C)[C@H]2O)ccc1OCCN1CCCCC1
3. CN1C(c2ccccc2)CC(=NO)CC1c1ccccc1 (centres undefined)
4. COc1nc2c(c(=O)n1C)CN(c1ccccc1)C(=O)CN2C
5. Oc1c(CN2CCCCC2)ccc2cccnc12
6. CC[C@H](C)[C@H](NC(=O)c1ncccn1)C(=O)N(C)[C@H](C[C@@H](OC(C)=O)c1nc(C(=O)N[C@@H](Cc2ccccc2)C[C@H](C)C(=O)OC)cs1)C(C)C

> 100 µM
0.85 µM
30.5 µM
> 100 µM
6.6 µM
6.48 µM

---

Answer each item with its documented TGI.
tested on: HCT-15 colon; experiment: NCI tumour cell line growth inhibition, 48 h

// known answers, use as guide
CC(C)(C)c1ccc(NS(=O)(=O)c2ccc(N)cc2)cc1    > 100 µM
O=C(/C=C/c1ccc(-c2ccccc2)cc1)c1ccccc1    54.9 µM
CC(=O)OC1CC2C(C)(C)C(=O)C=C[C@]2(C)C2CCC3(C)C(c4ccoc4)C(=O)C4OC43[C@]12C (stereo partly specified)    29.9 µM
O=C(O)C(Cc1ccccc1)N=Cc1nc(-c2ccccc2)oc1O (stereo unspecified)    > 100 µM
COc1ccc2c(c1)c1ccc3c(c1n2C)C(=O)C=CC3=O    10.9 µM

Recorded TGI for COc1ccc(NC(=O)c2ccc(C(F)(F)F)nc2Nc2ccc(Cl)cc2C)cc1Cl , please?
20.5 µM

---

test system: MDA-MB-435; assay: NCI tumour cell line growth inhibition, 48 h
READOUT_LABEL: log10 TGI (log10 of the value in µM)
Base-10 log of TGI, unit µM.

CC1(C)CC[C@]2(C(=O)NCCNCCN)CC[C@]3(C)C(=CC[C@@H]4[C@@]5(C)CCC(=O)C(C)(C)[C@@H]5CC[C@]43C)[C@@H]2C1    0.50
CO[C@H]1/C=C/O[C@@]2(C)Oc3c(C)c(O)c4c(O)c(c(/C=N/N5C(C)CN(Cc6ccc(C#N)cc6)CC5C)c(O)c4c3C2=O)NC(=O)/C(C)=C\C=C\[C@H](C)[C@H](O)[C@@H](C)[C@@H](O)[C@@H](C)[C@H](OC(C)=O)[C@@H]1C (stereo partly drawn)    1.37

Take each entry in turn and give its log10 TGI.
1. COc1cc(/C=C2\C(=O)Nc3ccc(Cl)cc32)cc(OC)c1OC
2. COc1ccc(-c2c(NC(=O)Nc3ccc(Cl)c(C(F)(F)F)c3)cnn2-c2ccc(S(N)(=O)=O)cc2)cc1

1: 0.97; 2: 0.98

Form field: log10 TGI recorded for Cc1cc(C)n(CN(CCCCO)Cn2nc(C)cc2C)n1 with MDA-MB-435 (enter value)
1.58
